Just for reference, patent US10349662B2 is where these values come from.

Tested on: Aedes aegypti mosquitoes
Test: Topical bioassay on adult female Aedes aegypti mosquitoes (knockdown 1 h, mortality 24 h; Colby calculation for combinations)
Type: in vivo
Conditions: 1%
Source text: Components of a composition can have a synergistic or additive effect on insecticidal activity. Components have an additive effect when the effect of the combination is equal to the sum of the effects of each individual component. […] The effect (E) of a combination of two compounds may be calculated using the Colby formula (1) (S. R. Colby, “Calculating Synergistic and Antagonistic Responses of Herbicide Combinations”, Weeds 1967, 15, 20-22): […]
Reported 1 hour knockdown values for a set of compounds
measurement.label: 1 hour knockdown (%)

compound="C=C(C)[C@@H]1CC=C(C=O)CC1 [(S)-(−)-Perillaldehyde]" result_number=3
compound=CC/C=C\C/C=C\C/C=C\CCCCCCCC(=O)O result_number=0
compound=C=CC(C)=CCC=C(C)CCC=C(C)C result_number=0
compound=C=C1CC/C=C(\C)CC[C@@H]2[C@@H]1CC2(C)C result_number=0

====

test system: Aedes aegypti mosquitoes; assay: Topical bioassay on adult female Aedes aegypti mosquitoes (knockdown 1 h, mortality 24 h; Colby calculation for combinations); format: in vivo; settings: 1%
Reported % MORTALITY AFTER 24 HRS values for a set of compounds
measurement.label: % MORTALITY AFTER 24 HRS (%)

compound=C=CC(C)=CCC=C(C)CCC=C(C)C measurement_label="% MORTALITY AFTER 24 HRS" result_number=3
compound=C=C1CC/C=C(\C)CC[C@@H]2[C@@H]1CC2(C)C measurement_label="% MORTALITY AFTER 24 HRS" result_number=0
compound="C=C(C)[C@@H]1CC=C(C=O)CC1 [(S)-(−)-Perillaldehyde]" measurement_label="% MORTALITY AFTER 24 HRS" result_number=7
compound="C=C(C)[C@@H]1CC=C(CO)CC1 [(S)-(−)-Perillyl alcohol]" measurement_label="% MORTALITY AFTER 24 HRS" result_number=0

====

tested on: Aedes aegypti mosquitoes; assay: Topical bioassay on adult female Aedes aegypti mosquitoes (knockdown 1 h, mortality 24 h; Colby calculation for combinations); type: in vivo; details: 5%
measurement.label: % MORTALITY AFTER 24 HRS (%)

molecule=C=C(C)[C@H]1CC=C(C)CC1 target_or_system="Aedes aegypti mosquitoes" measurement_units=% result_number=27
molecule=C=CC(C)=CCC=C(C)CCC=C(C)C target_or_system="Aedes aegypti mosquitoes" measurement_units=% result_number=13
molecule=C=C1CC/C=C(\C)CC[C@@H]2[C@@H]1CC2(C)C target_or_system="Aedes aegypti mosquitoes" measurement_units=% result_number=17
molecule="C=C(C)[C@@H]1CC=C(C=O)CC1 [(S)-(−)-Perillaldehyde]" target_or_system="Aedes aegypti mosquitoes" measurement_units=% result_number=93

====

tested on: Aedes aegypti mosquitoes; assay: Topical bioassay on adult female Aedes aegypti mosquitoes (knockdown 1 h, mortality 24 h; Colby calculation for combinations); format: in vivo; conditions: 5%
Reported 1 hour knockdown values for a set of molecules
measurement.label: 1 hour knockdown (%)

molecule="C=C(C)[C@@H]1CC=C(C=O)CC1 [(S)-(−)-Perillaldehyde]" measurement_label="1 hour knockdown" result_number=93
molecule="C=CC(C)=CCC=C(C)CCC=C(C)C [Farnesene]" measurement_label="1 hour knockdown" result_number=0
molecule="C=C1CC/C=C(\\C)CC[C@@H]2[C@@H]1CC2(C)C [β-Caryophyllene]" measurement_label="1 hour knockdown" result_number=10
molecule="CC/C=C\\C/C=C\\C/C=C\\CCCCCCCC(=O)O [Linolenic acid]" measurement_label="1 hour knockdown" result_number=27
